TARGET UNDER TEST: acetylcholine receptor
TEST DETAILS: SPR, AchR immobilised, peptide 10 uM
So basically: is Binding affinity (RU) under 20 RU? Then Met. Not under? Then Not met.

A selection of reference data follows.
Dear colleague, could you confirm whether Binding affinity (RU) of KKCDGK [6mer-1-665] falls below 20 RU? Thanks.
Not met

Dear colleague, could you confirm whether Binding affinity (RU) of KKTMWR [6mer-1-1090] falls below 20 RU? Thanks.
Not met

Dear colleague, could you confirm whether Binding affinity (RU) of KKNAVR [6mer-1-1083] falls below 20 RU? Thanks.
Not met

Continue with the next binder.
Dear colleague, could you confirm whether Binding affinity (RU) of RRKTDR [6mer-1-1099] falls below 20 RU? Thanks.
Not met
